Target Under Test: Calpain-1 catalytic subunit (Homo sapiens, UniProt P07384)
Sequence (P07384 whole entry): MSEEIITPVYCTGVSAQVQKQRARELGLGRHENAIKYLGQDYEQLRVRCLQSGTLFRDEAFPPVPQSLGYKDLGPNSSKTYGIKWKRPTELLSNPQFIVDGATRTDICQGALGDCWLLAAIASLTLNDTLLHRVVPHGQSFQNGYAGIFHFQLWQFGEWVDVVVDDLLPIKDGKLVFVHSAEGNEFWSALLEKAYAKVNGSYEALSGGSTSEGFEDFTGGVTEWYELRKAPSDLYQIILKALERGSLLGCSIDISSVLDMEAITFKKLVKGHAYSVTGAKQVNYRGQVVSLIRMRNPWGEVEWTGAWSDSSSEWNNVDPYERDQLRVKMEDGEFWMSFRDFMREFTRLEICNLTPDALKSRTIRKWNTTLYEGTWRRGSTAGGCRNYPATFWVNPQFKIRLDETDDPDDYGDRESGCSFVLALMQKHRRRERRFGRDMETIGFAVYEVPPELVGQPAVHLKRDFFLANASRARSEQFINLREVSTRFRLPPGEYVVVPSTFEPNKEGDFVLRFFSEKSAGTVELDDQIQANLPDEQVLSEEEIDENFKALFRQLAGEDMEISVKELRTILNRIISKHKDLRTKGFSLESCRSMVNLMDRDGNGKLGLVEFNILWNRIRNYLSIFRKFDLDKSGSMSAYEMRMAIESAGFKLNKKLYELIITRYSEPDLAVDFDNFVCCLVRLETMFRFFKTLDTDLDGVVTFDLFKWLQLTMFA
Experimental Protocol: Inhibitory activity against recombinant human Calpain 1
Experimental Endpoint: Ki (nM)
Answers are plain numbers, in nM.

[[record]]
smiles_string = "CC(C)C(=O)N[C@@H](Cc1ccccc1)C(=O)C(=O)NCCNS(=O)(=O)c1ccc(-c2ccccn2)s1"
value = 1100

[[record]]
smiles_string = "O=C(NCCNS(=O)(=O)c1ccc(-c2cccc(CN3CCOCC3)c2)s1)C(=O)[C@H](Cc1ccccc1)NC(=O)c1c(Cl)cccc1Cl"
value = 21

[[record]]
smiles_string = "CC(C)CCC(=O)N[C@@H](Cc1ccccc1)C(=O)C(=O)NCCNS(=O)(=O)c1ccc(-c2ccccn2)s1"
value = 21


Would you mind giving Ki for every molecule in the list below?
1. O=C(CCCc1ccccc1)N[C@@H](Cc1ccccc1)C(=O)C(=O)NCCNS(=O)(=O)c1ccc(-c2ccccn2)s1
2. CC(C)CC(=O)N[C@@H](Cc1ccccc1)C(=O)C(=O)NCCNS(=O)(=O)c1ccc(-c2ccccn2)s1
3. O=C(Cc1ccc(Cl)nc1Cl)N[C@@H](Cc1ccccc1)C(=O)C(=O)NCCNS(=O)(=O)c1ccc(-c2ccccn2)s1

## Output
1: 1100; 2: 420; 3: 57

* * *

Hi there, I'd appreciate the recorded Ki for every entry that follows.
Target Under Test: Calpain-1 catalytic subunit (Homo sapiens, UniProt P07384)
Experimental Protocol: Inhibitory activity against recombinant human calpain I
One number for each entry, in nM.

Illustrative cases are given below, each with its answer.
[[record]]
compound = "CC(CCC(=O)N[C@@H](Cc1ccccc1)C(=O)C(=O)NCCNS(=O)(=O)c1ccc(-c2ccccn2)s1)c1ccccc1 (some centres undefined)"
value = 62

[[record]]
compound = "CC(=O)N1CCN(Cc2ccc(S(=O)(=O)NCCNC(=O)C(=O)[C@H](Cc3ccccc3)NC(=O)c3c(Cl)cccc3Cl)cc2)CC1"
value = 71


## Input Fill in reported Ki for this entry: "Cc1cccc(C)c1C(=O)N[C@@H](Cc1ccccc1)C(=O)C(=O)NCCNS(=O)(=O)c1ccc(-c2ccccn2)s1"
## Output 130
